Reference source: patent US20230286983A1

# Measurement notes: Brain vs plasma concentration, 4ET-03-009 at 10 mg/kg
# Assay type: in vivo, mice
# Measurement parameters: CD-1, mouse, brain/plasma; 10 mg/kg oral, 2 hours after dosing, Brain; read-out: Mean Tissue/Plasma Conc. Ratio
Reported endpoint: Kp at 2 hours
Please state the value as a number alone, without comment.

## Task State the recorded Kp at 2 hours for this entry: Cc1cc(Nc2cc(NC(=O)C3CC3)ncn2)c(=O)n2c1C(=O)NC21CCOCC1
## Result 0.083

----------
# Measurement notes: Pharmacokinetic study, 4ET-03-009 at 10 mg/kg oral
# Type: in vivo, CD-1 male mice
# Measurement parameters: male, CD-1, mouse, plasma, po, 10 mg/kg, Mean (n = 3), read-out: Cmax
Reported endpoint: Cmax (ng/mL)
Could you give me the number in ng/mL? Just the number is fine.

## Task State the recorded Cmax for this entry: Cc1cc(Nc2cc(NC(=O)C3CC3)ncn2)c(=O)n2c1C(=O)NC21CCOCC1 [Compound 4ET-03-009]
## Result 294
